All figures here come from patent US20040127421A1.

Target: T1, Active MMP-9 enzyme (UniProt P14780 107-707, limits assumed)
T1 construct: mature; also called matrix metalloproteinase-9; mature MMP-9
T1 sequence (P14780 107-707 limits assumed): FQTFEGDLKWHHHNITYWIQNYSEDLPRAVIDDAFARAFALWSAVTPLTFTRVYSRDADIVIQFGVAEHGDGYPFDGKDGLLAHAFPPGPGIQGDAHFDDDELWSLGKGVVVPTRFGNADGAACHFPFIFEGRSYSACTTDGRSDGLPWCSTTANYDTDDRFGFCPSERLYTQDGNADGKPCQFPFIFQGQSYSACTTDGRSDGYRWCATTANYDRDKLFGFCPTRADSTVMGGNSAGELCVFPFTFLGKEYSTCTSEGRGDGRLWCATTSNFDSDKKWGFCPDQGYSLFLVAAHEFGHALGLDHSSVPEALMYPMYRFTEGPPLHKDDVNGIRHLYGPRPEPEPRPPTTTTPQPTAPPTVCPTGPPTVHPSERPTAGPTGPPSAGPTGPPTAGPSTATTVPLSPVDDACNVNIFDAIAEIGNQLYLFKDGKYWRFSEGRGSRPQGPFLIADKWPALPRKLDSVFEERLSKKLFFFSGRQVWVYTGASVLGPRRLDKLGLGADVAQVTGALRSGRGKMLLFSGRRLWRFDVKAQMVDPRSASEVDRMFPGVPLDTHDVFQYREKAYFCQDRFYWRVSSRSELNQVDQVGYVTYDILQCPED
Test: enzyme inhibition, FRET peptide substrate
Reported endpoint: Ki (µM)
Write it as a number; the unit µM goes unstated.

// known answers, use as guide
binder="PRCGNPDVA [9-mer (SEQ ID NO:12) PRCGNPDVA]" reported_endpoint=Ki measured=233
binder="H-PRCGNPDVANYNFFPRKPK-OH (Synthesized by Sigma-Genosys, >95% pure by RP-HPLC; Free termini; the acetylated/amidated Ac-19-mer was used only in migration assays; also called 19mer peptide) [19-mer (SEQ ID NO:11) PRCGNPDVANYNFFPRKPK]" reported_endpoint=Ki measured=45.2

Then this binder:
Request the reported Ki associated with NYNFFPRKPK [10-mer (SEQ ID NO:13) NYNFFPRKPK]
328
